biological target: Estrogen receptor (Homo sapiens) (UniProt P03372); assay: qHTS assay to identify small molecule antagonists of the estrogen receptor alpha (ER-alpha) signaling pathway (AID 743069); settings: HEK293 ER-alpha-UAS-bla, beta-lactamase ratio, antagonist mode; series mostly up to 69.4 µM
Sequence (P03372 whole entry, looked up): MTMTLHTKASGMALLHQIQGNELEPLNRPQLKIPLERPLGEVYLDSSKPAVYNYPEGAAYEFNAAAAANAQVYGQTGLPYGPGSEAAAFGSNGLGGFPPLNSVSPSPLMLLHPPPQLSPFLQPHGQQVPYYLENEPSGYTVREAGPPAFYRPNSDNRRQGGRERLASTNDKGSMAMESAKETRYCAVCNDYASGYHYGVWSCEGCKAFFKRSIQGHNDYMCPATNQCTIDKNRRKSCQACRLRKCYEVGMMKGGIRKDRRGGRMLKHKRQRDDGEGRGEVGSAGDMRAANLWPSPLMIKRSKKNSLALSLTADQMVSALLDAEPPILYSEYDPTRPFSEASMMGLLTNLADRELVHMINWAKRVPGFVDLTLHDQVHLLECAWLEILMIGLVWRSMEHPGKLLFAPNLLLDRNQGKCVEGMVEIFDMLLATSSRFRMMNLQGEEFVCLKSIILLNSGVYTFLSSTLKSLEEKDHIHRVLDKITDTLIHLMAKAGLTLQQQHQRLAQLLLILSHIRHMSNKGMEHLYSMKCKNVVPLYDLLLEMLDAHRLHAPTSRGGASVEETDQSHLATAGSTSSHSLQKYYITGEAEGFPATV
Activity calls are given as the source filed them. Calls follow the shape of the dose curve; as a rule, active = well fitted curve in the direction sought with a large enough effect in the signal ratio in the repeat runs (not every such curve was filed as active); inconclusive = weak or mixed curves, or effect the other way; inactive = no such curve, though single readings can be large or run the other way; the % refers to the signal ratio.
Outcomes: active, inactive

{"columns": ["compound", "class"],
 "data": [
  ["Oc1c(Cl)c(Cl)cc(Cl)c1Cl", "active"],
  ["CCCN(CCC)CCc1c[nH]c2ccccc12", "inactive"],
  ["Nc1ccc(Cc2ccc(N)c(Cl)c2)cc1Cl", "active"],
  ["NNC(=O)c1ccccc1", "inactive"],
  ["CC(C)(C)c1ccc(CSc2cnn(C(C)(C)C)c(=O)c2Cl)cc1", "active"],
  ["C[C@H]1CC[C@@H]2[C@@H](C)[C@H]3[C@H](C[C@H]4[C@@H]5CC=C6CC(O[C@@H]7O[C@H](CO)[C@H](O)[C@H](O[C@@H]8O[C@H](CO)[C@@H](O)[C@H](O)[C@H]8O)[C@H]7O[C@H]7O[C@@H](C)[C@H](O)[C@@H](O)[C@H]7O)CC[C@]6(C)[C@H]5CC[C@]34C)N2C1 (stereo partly specified)", "inactive"]
]}
